Each recorded value in this set is attributed to PubChem BioAssay (NCI).

- Test system: LOX IMVI melanoma
- Protocol text: NCI tumour cell line growth inhibition, 48 h
Where a SMILES comes first, the peptide text is derived from it. [ ]: non-standard residue; d: D form. The star is where a group is joined. dTle = CC(C)(C)[C@@H](N)C(=O)O; 4Abz = Nc1ccc(C(=O)O)cc1; NHOH = ON*

Compound	Experimental system	TGI
OCCNc1nc(Nc2ccc(Cl)c(Cl)c2)nc2ccccc12	LOX IMVI melanoma	11.9 µM
CN(C)c1snc2c1c(=O)n(C)c(=O)n2C	LOX IMVI melanoma	> 100 µM
O=C(N/N=C/c1ccc([N+](=O)[O-])cc1)Nc1ccc(Br)cc1	LOX IMVI melanoma	> 100 µM
N#Cc1c(N)nc(N2CCOCC2)c(C#N)c1-c1ccccn1	LOX IMVI melanoma	> 100 µM
CCOC(=O)c1c(C)n(C)c2c1cc(O)c1[nH]c3c(c12)CCCC3	LOX IMVI melanoma	29.7 µM
O=C(CCn1[nH]c(=O)c(Cl)c(Cl)c1=O)NNC(=O)C[n+]1ccccc1	LOX IMVI melanoma	> 100 µM
OC(c1ccc2c(c1)OCO2)c1ccc2c(c1)OCO2	LOX IMVI melanoma	> 100 µM
C[C@@H](NC(=O)[C@H](NC(=O)[C@@H]1CCCN1C(=O)CNC(=O)c1ccc(N)cc1)C(C)(C)C)C(=O)NO (H-[4Abz]GP[dTle][dA]-{NHOH})	LOX IMVI melanoma	> 100 µM
O=c1cc(-c2ccco2)[nH]c2cc3c(cc12)OCO3	LOX IMVI melanoma	> 100 µM
CN1C(=O)C(O)CC1c1ccccc1C(F)(F)F (stereo not given)	LOX IMVI melanoma	> 100 µM

###

- System: COLO 205 colon
- Protocol text: NCI tumour cell line growth inhibition, 48 h
Examples of molecules with documented TGI follow.

Molecule	Comparison sign	TGI, µM
CSc1nc(C)c(CCOC(C)=O)c(Cl)n1	>	100
CCc1ccc(C(=Nc2ccc(N(C)C(=O)CN3CCN(C)CC3)cc2)c2c(O)[nH]c3ccc(C(=O)OC)cc23)cc1	=	1.7
O=C(CC(=O)c1cccc2ccccc12)C(=O)NC1C2CC3CC(C2)CC1C3 (centres undefined)	>	100
CC(C)C[C@H](NC(=O)[C@H](Cc1ccc(F)cc1)NC(=O)c1ccccn1)B(O)O	=	1.12
O=C1/C(=C/c2ccc(Cl)cc2)CCC/C1=C\c1ccc(Cl)cc1	>	100
C[C@]12CC[C@@H]3c4ccc(O)cc4CC[C@H]3[C@@H]1CC[C@@H]2OC(=O)CCc1ccccc1	=	37.1
CN(C)CCNc1c2ccccc2nc2oc3ccccc3c12	=	10.3
O=C1C2C(C(=O)N1c1ccccc1)C1([N+](=O)[O-])C=C3c4ccccc4N(C(=O)c4ccccc4)C32C2C(=O)N(c3ccccc3)C(=O)C21 (centres undefined)	>	100
CCOC(=O)c1cnc2c(ccc3ncccc32)c1NCCCN(CC)CC	>	100

###

- System: IGROV1 ovarian
- Protocol text: NCI tumour cell line growth inhibition, 48 h
Recorded metric: TGI

Molecule	Result value
CC(=O)OCC1OC(O[C@@H]2C[C@H]3C(C)(C)[C@@H](OC(C)=O)CC[C@]3(C)[C@H]3CC[C@]45C[C@]4(CC[C@H]5[C@@H](C)C[C@@H](O)[C@H](O)C(C)(C)F)[C@@]32C)C(O)C(O)C1O (stereo partly drawn)	4.45 µM
O=C1/C(=C/c2ccc(Cl)cc2)CCC/C1=C\c1ccc(Cl)cc1	> 100 µM
Cc1ccc(NC(=O)CSc2nnc3n(Cc4ccccc4)c(=O)c4c(C)c(C(N)=O)sc4n23)cc1	> 100 µM
CCCCCCCCCCCCCCCCCCOCC(CCP(=O)(CP(=O)(O)O)Oc1ccccc1)OCCCCCCCCCCCCCCCCCC (stereo not drawn)	> 100 µM
CCOC(=O)c1cnc2sc3ccc4ccccc4c3n2c1=O	> 100 µM
COc1ccc(C2=C(N)c3ncccc3C2=O)cc1	> 100 µM
Cc1cc2c(C(N)=O)c(N)n(-c3c(C)ccc(O)c3C)c2nc1C	12 µM
C=C1C(OC(=O)/C=C/c2ccccc2)CC(OC(C)=O)C2(C)C1CC1CC(OC(C)=O)C(C)=C(C(OC(C)=O)C2OC(C)=O)C1(C)C (stereo not drawn)	> 100 µM
